assayedSystem: UniProtKB P10691
Sequence (P10691 whole entry): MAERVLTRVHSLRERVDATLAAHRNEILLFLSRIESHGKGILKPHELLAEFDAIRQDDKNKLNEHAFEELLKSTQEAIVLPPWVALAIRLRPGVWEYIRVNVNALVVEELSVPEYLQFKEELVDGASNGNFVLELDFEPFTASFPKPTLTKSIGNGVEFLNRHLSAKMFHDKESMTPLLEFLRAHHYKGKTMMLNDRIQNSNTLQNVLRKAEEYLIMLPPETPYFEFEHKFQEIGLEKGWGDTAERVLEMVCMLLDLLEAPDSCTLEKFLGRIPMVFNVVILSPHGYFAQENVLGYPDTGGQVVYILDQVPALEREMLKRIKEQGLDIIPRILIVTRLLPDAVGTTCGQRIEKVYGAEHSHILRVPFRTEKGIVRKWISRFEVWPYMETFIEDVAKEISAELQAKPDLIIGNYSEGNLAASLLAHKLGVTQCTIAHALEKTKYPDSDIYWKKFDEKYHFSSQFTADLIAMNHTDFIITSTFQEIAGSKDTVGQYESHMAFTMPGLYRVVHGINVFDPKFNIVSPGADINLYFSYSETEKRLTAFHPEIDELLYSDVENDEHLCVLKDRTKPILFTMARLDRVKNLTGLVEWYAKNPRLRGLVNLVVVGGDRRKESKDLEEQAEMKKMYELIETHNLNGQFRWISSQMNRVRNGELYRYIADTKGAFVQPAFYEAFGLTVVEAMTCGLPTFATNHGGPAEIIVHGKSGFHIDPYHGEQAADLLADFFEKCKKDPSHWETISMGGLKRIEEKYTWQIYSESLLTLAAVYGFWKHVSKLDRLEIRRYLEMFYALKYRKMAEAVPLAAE
assayNotes: SuSy4 activity, sucrose synthesis direction, absence of UDP
protocolConditions: read-out: Ki SuSy4; substrate UDPG
quantityKind: pKi
Would you please state pKi, meaning minus log10 of the concentration in mol/L, as a bare number?

Prompt: Consider the compound `O=c1ccn([C@@H]2O[C@H](COP(=O)(O)OP(=O)(O)O)[C@@H](O)[C@H]2O)c(=O)[nH]1` and give its recorded pKi.
Response: 3.84
